So I've got a bunch of binders here, and I need their % inhibition of binding values.
Target: tetanus neurotoxin (TeNT), authentic tetanus holotoxin (Clostridium tetani, UniProt P04958 2-1315)
Sequence (P04958 2-457 limits assumed, chain 1 of 2): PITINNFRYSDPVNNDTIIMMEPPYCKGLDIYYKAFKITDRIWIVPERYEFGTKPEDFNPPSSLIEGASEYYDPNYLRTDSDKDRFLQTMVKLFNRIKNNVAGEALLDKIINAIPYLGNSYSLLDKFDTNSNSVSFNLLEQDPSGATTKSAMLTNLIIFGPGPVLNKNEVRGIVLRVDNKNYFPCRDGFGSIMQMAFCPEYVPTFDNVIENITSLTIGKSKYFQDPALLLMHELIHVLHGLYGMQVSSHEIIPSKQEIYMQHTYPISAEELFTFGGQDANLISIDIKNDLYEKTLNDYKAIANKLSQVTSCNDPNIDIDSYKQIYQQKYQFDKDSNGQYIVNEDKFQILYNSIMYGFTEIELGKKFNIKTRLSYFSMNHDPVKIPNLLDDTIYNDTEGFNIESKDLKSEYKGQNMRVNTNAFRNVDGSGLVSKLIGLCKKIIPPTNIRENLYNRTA
Sequence (P04958 458-1315 limits assumed, chain 2 of 2): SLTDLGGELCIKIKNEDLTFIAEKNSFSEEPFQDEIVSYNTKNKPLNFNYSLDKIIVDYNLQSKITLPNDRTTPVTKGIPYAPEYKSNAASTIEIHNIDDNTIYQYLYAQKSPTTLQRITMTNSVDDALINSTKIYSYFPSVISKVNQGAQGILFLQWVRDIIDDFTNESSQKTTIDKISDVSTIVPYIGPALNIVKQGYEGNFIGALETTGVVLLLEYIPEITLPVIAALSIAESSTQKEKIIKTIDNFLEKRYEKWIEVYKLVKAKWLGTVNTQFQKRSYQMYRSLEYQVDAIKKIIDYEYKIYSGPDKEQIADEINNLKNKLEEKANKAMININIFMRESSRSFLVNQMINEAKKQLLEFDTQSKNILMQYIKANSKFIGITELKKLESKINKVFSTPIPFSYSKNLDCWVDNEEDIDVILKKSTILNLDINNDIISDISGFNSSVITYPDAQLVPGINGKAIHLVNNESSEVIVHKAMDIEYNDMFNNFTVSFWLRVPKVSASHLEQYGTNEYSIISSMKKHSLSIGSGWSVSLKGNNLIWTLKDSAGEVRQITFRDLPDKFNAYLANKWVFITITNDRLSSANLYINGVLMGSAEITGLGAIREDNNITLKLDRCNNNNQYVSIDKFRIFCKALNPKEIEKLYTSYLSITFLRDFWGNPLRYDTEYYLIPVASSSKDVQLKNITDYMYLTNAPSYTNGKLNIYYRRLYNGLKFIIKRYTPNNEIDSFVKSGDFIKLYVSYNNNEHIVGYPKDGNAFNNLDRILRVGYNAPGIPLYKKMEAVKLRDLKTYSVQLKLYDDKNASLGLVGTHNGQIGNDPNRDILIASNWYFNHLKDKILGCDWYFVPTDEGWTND
Test: competition ELISA on TeNT, binder biotinylated; competitor SVT02L; note: test concentration or dose not given here
Answers are plain numbers, in %.

# batch: return % inhibition of binding for each of the 2 binders below
1. SVT22L (VHH) VHH: QVQLQESGGGLVQAGESLRLSCTASGISFDDYAIGWFRQAPGQQRKGVACISKADGRTDYLGSVKGRFTLSTDNTKNTVHLQMNNLKPEDTALYTCAAEYKSCGMGYKPIDYWGQGMQVTVSS
2. SVT15L (VHH) VHH: QVQLQESGGGLVQTGGSLRLSCRASGRAFANYHFGWFRQAPGKDREFVASISWKGGSTYYANFALGRFTSSVDRAESSVYLQMSGLTPEDTATYYCAAHDGGDWNYHTGMDYWGKGILVTVSS

4
6
